assay_summary: Comparison of Janus kinase inhibitors to block the type I interferon pathway in human skeletal muscle cells: JAK inhibition assay
measurement_setup: IFN pathway HiBiT reporter; series mostly up to 45.9 µM
Results filed as inconclusive are left out. The source made the active and inactive calls. Calls follow the shape of the dose curve; as a rule, active = well fitted inhibition curve with a large enough effect in the repeat runs; inconclusive = weak or mixed curves; inactive = no such curve, though single readings can be large or run the other way.
Labels: active, inactive

[[record]]
structure_string = "Cn1cc(Nc2nccc(N3C[C@H]4CC[C@@H](C3)N4C(=O)[C@@H]3CC3(F)F)n2)cn1"
class_name = "active"

[[record]]
structure_string = "C1=C/COCc2cc(ccc2OCCN2CCCC2)Nc2nccc(n2)-c2cccc(c2)COC/1"
class_name = "active"

[[record]]
structure_string = "Cc1cc(Nc2nc(N[C@@H](C)c3ccc(F)cc3)c(C#N)cc2F)n[nH]1"
class_name = "active"

[[record]]
structure_string = "Cc1cc(Nc2cc(NC(=O)c3c(Cl)cccc3Cl)ccn2)nc(N)n1"
class_name = "active"

[[record]]
structure_string = "N#C/C(=C\\c1ccc(O)c(O)c1)C(=O)NCc1ccccc1"
class_name = "inactive"

[[record]]
structure_string = "CCC[C@H](NC(=O)/C(C#N)=C/c1cccc(Br)n1)c1ccccc1"
class_name = "active"

[[record]]
structure_string = "N#CCC1(n2cc(-c3ncnc4[nH]ccc34)cn2)CN(C2CCN(C(=O)c3ccnc(C(F)(F)F)c3F)CC2)C1"
class_name = "active"

[[record]]
structure_string = "Cc1cc(Nc2cc(CN3CCOCC3)c3nc(C)c(Cc4ccc(Cl)cc4F)n3n2)n[nH]1"
class_name = "active"

[[record]]
structure_string = "CC(C)(C)c1nc2c3cc[nH]c(=O)c3c3cc(F)ccc3c2[nH]1"
class_name = "active"

[[record]]
structure_string = "N#CCNC(=O)c1ccc(-c2ccnc(Nc3ccc(N4CCOCC4)cc3)n2)cc1"
class_name = "active"

